# reported pIC50; entries follow
# System: RAW264.7
# assay_text: Anti-inflammatory activity in mouse RAW264.7 cells assessed as inhibition of LPS-induced NO production preincubated for 1 hr followed by LPS-stimulation and measured after 18 hrs by Griess reagent-based assay
# Format: functional, cell-based
pIC50: −log10 of the molar value.

Known results for compounds:
• CC1(C)CC[C@]2(C(=O)O)CC[C@]3(C)C(=CC[C@@H]4[C@@]5(C)CC[C@H](O[C@@H]6OC[C@H](O)[C@H](O)[C@H]6O[C@@H]6O[C@H](CO)[C@@H](O)[C@H](O)[C@H]6O)C(C)(C)[C@@H]5CC[C@]43C)[C@@H]2C1 = 5.74
• CC1(C)CC[C@]2(C(=O)O[C@@H]3O[C@H](CO[C@@H]4O[C@H](CO)[C@@H](O)[C@H](O)[C@H]4O)[C@@H](O)[C@H](O)[C@H]3O)CC[C@]3(C)C(=CC[C@@H]4[C@@]5(C)CC[C@H](O)[C@@](C)(CO)[C@@H]5CC[C@]43C)[C@@H]2C1 = < 4.30

Task: What reported pIC50 corresponds to C=C1CC[C@]2(C(=O)O[C@@H]3O[C@H](CO[C@@H]4O[C@H](CO)[C@@H](O)[C@H](O)[C@H]4O)[C@@H](O)[C@H](O)[C@H]3O)CC[C@]3(C)C(=CC[C@@H]4[C@@]5(C)CC[C@H](O)C(C)(C)[C@@H]5CC[C@]43C)[C@@H]2C1 on RAW264.7?
Result: < 4.30

Task: What reported pIC50 corresponds to C=C1CC[C@]2(C(=O)O[C@@H]3O[C@H](CO[C@@H]4O[C@H](CO)[C@@H](O[C@@H]5O[C@@H](C)[C@H](O)[C@@H](O)[C@H]5O)[C@H](O)[C@H]4O)[C@@H](O)[C@H](O)[C@H]3O)CC[C@]3(C)C(=CC[C@@H]4[C@@]5(C)CC[C@H](O)C(C)(C)[C@@H]5CC[C@]43C)[C@@H]2C1 on RAW264.7?
Result: < 4.30

----------
# reported IC50; entries follow
# Tested on: RAW264.7
# assay_text: Anti-inflammatory activity in mouse RAW264.7 cells assessed as inhibition of LPS-induced NO production preincubated for 1 hr followed by LPS-stimulation and measured after 18 hrs by Griess reagent-based assay
# Format: functional, cell-based

Known results for compounds:
- C[C@@H]1C[C@H]2[C@@H]3CCC4=CC(=O)C=C[C@]4(C)[C@@]3(F)[C@@H](O)C[C@]2(C)[C@@]1(O)C(=O)CO: 0.13 µM
- C=C1CC[C@]2(C(=O)O[C@@H]3O[C@H](CO[C@@H]4O[C@H](CO)[C@@H](O)[C@H](O)[C@H]4O)[C@@H](O)[C@H](O)[C@H]3O)CC[C@]3(C)C(=CC[C@@H]4[C@@]5(C)CC[C@H](O)[C@@](C)(CO)[C@@H]5CC[C@]43C)[C@@H]2C1: > 50 µM
- C[C@@H]1O[C@@H](O[C@H]2[C@H](O[C@H]3CC[C@]4(C)[C@H]5CC=C6[C@@H]7CC(C)(C)CC[C@]7(C(=O)O)CC[C@@]6(C)[C@]5(C)CC[C@H]4C3(C)C)OC[C@H](O[C@@H]3O[C@H](CO)[C@@H](O)[C@H](O)[C@H]3O)[C@@H]2O)[C@H](O)[C@H](O)[C@H]1O [HEDERACOLCHISIDE A1]: 0.59 µM

Task: Any idea what its IC50 is? The compound is C[C@@H]1O[C@@H](O[C@H]2[C@H](O[C@H]3CC[C@@]4(C)[C@@H](CC[C@]5(C)[C@@H]4CC=C4[C@@H]6CC(C)(C)CC[C@]6(C(=O)O[C@@H]6O[C@H](CO[C@@H]7O[C@H](CO)[C@@H](O[C@@H]8O[C@@H](C)[C@H](O)[C@@H](O)[C@H]8O)[C@H](O)[C@H]7O)[C@@H](O)[C@H](O)[C@H]6O)CC[C@]45C)[C@]3(C)CO)OC[C@H](O)[C@@H]2O)[C@H](O)[C@H](O)[C@H]1O
Result: > 50 µM

Task: Any idea what its IC50 is? The compound is C[C@@H]1O[C@@H](O[C@H]2[C@H](O[C@H]3CC[C@]4(C)[C@H]5CC=C6[C@@H]7CC(C)(C)CC[C@]7(C(=O)O)CC[C@@]6(C)[C@]5(C)CC[C@H]4C3(C)C)OC[C@H](O)[C@@H]2O[C@@H]2O[C@H](CO)[C@@H](O)[C@H](O)[C@H]2O)[C@H](O)[C@H](O)[C@H]1O
Result: > 50 µM

Task: Any idea what its IC50 is? The compound is C[C@@H]1O[C@@H](O[C@H]2[C@H](O)[C@@H](O)[C@H](OC[C@H]3O[C@@H](OC(=O)[C@]45CCC(C)(C)C[C@H]4C4=CC[C@@H]6[C@@]7(C)CC[C@H](O)[C@@](C)(CO)[C@@H]7CC[C@@]6(C)[C@]4(C)CC5)[C@H](O)[C@@H](O)[C@@H]3O)O[C@@H]2CO)[C@H](O)[C@H](O)[C@H]1O [KIZUTA CIRENSENOSIDE O SAPONIN K3]
Result: > 50 µM

Task: Any idea what its IC50 is? The compound is C[C@@H]1O[C@@H](O[C@H]2[C@H](O)[C@@H](O)[C@H](OC[C@H]3O[C@@H](OC(=O)[C@]45CCC(C)(C)C[C@H]4C4=CC[C@@H]6[C@@]7(C)CC[C@H](O[C@@H]8OC[C@H](O)[C@H](O)[C@H]8O)[C@@](C)(CO)[C@@H]7CC[C@@]6(C)[C@]4(C)CC5)[C@H](O)[C@@H](O)[C@@H]3O)O[C@@H]2CO)[C@H](O)[C@H](O)[C@H]1O [CAULOSIDE D]
Result: > 50 µM

----------
# Test system: RAW264.7
# assay_text: Cytotoxicity against mouse RAW264.7 cells at anti-inflammatory IC50 after 19 hrs by MTT assay
# Assay type: cell-based
# condition_parameters: raw264.7, 19 h
recorded_endpoint: Activity

* CC1(C)CC[C@]2(C(=O)O)CC[C@]3(C)C(=CC[C@@H]4[C@@]5(C)CC[C@H](O)[C@@](C)(CO[C@@H]6O[C@H](CO[C@@H]7O[C@H](CO)[C@@H](O)[C@H](O)[C@H]7O)[C@@H](O)[C@H](O)[C@H]6O)[C@@H]5CC[C@]43C)[C@@H]2C1 | Non-Toxic
* CC1(C)CC[C@]2(C(=O)O[C@@H]3O[C@H](CO[C@@H]4O[C@H](CO)[C@@H](O)[C@H](O)[C@H]4O)[C@@H](O)[C@H](O)[C@H]3O)CC[C@]3(C)C(=CC[C@@H]4[C@@]5(C)CC[C@H](O[C@@H]6OC[C@H](O)[C@H](O)[C@H]6O)C(C)(C)[C@@H]5CC[C@]43C)[C@@H]2C1 | Non-Toxic
